Origin of measurements: PubChem BioAssay (NCI)

Kindly supply the reported TGI values for the records listed here.
Test system: CCRF-CEM leukemia
Assay: NCI tumour cell line growth inhibition, 48 h

Need TGI of Cc1ccc(-c2cc[n+]3c(n2)oc2ccccc23)cc1 , thanks.
36.3 µM

Ok, now C=C1C(=O)O[C@H]2[C@H]1CC/C(COC(=O)OC/C1=C/CC[C@@]3(C)O[C@H]3[C@H]3OC(=O)[C@@H](CN(C)C)[C@@H]3CC1)=C\CC[C@@]1(C)O[C@@H]21
0.733 µM

Ok, now O=C1C=Cc2c1ccc1ccccc21
43.9 µM

Ok, now CCCCCCCC(=O)SCC/C=C/[C@@H]1CC(=O)NCc2nc(cs2)C2=N[C@@](C)(CS2)C(=O)N[C@@H](C(C)C)C(=O)N1
> 100 µM

Ok, now COC(=O)[C@@H](C)[C@H]1CC[C@@](C)(CCC2=C(C)CC3C=C(C)CCC3C2(C)C)OO1 (stereo partly drawn)
0.39 µM

Ok, now C=CCOC(=O)N1c2ccc(O)cc2[C@@]23O[C@@]24[C@@H]1C#C/C=C\C#C[C@]3(O)C(OC)(OC)C[C@@H]4C
76.8 µM

Ok, now C[n+]1c2ccccc2nc2ccccc21
> 28.7 µM

Ok, now O=C(Nc1ccccc1Cl)c1ccc([N+](=O)[O-])cc1
> 100 µM

Ok, now C/C(CC(=O)Nc1ccccc1C)=N/NS(=O)(=O)c1ccc(C)cc1
> 100 µM

Ok, now CC(=O)O[C@H]1C(=O)[C@@]2(C)[C@H]([C@H](OC(=O)c3ccccc3)[C@]3(O)C[C@H](OC(=O)[C@H](OC(=O)OC[C@H]4COC(C)(C)O4)[C@@H](NC(=O)c4ccccc4)c4ccccc4)C(C)=C1C3(C)C)[C@]1(OC(C)=O)CO[C@@H]1C[C@@H]2O
> 33.3 µM

Ok, now O=[N+]([O-])c1cc2ccc(N(CCO)CCO)nc2nc1N(CCO)CCO
> 100 µM

Ok, now Cc1nc2ccc(F)cc2c(Cl)c1CCCl
48.4 µM

Ok, now CN1CCc2c(sc3ncn(Nc4ccc(Cl)cc4)c(=N)c23)C1
> 100 µM

Ok, now COc1c(Br)cc2ccccc2c1-c1c(OC)c(Br)cc2ccccc12
> 100 µM

Ok, now O=c1[nH]c2nccn2c2c1SCCN2
> 100 µM

Ok, now CCCCc1ccc(Nc2nc(Cl)c3ccn(C4CC(Oc5ccc(C)cc5)C(COc5ccc(C)cc5)O4)c3n2)cc1 (stereo not drawn)
> 46.4 µM

Ok, now CCOC(=O)/C=C(\C(=O)OCC)n1cc(Cl)c(=O)n(CC(=O)OCC)c1=O
36.1 µM

Ok, now CC(C)C(=O)c1c(C(F)(F)F)n([O-])c2cc(F)c(F)cc2[n+]1=O
> 100 µM

Ok, now Cc1ccc(S(=O)(=O)C2=c3nc4ccccc4cc3=C3C(=O)c4ccccc4C(=O)C32)cc1 (stereo not drawn)
> 100 µM

Ok, now COC(=O)c1c(C)cccc1C1CN=NC12Cc1cc(C)cc(C)c1C2=O (stereo not drawn)
63.8 µM

Ok, now C1CN(P2(N3CC3)=NP(N3CC3)(N3CC3)=NP(N3CC3)(N3CC3)=N2)CCO1 (stereo not drawn)
> 100 µM

Ok, now CCCCCCCCCCCCCC[n+]1ccc(C(N)=O)cc1
> 100 µM

Ok, now CCN(CC)CCn1c(=O)c2c(C)c3oc4ccccc4oc3c(C)c2c1=O
> 100 µM

Ok, now CC(C)=CC(=O)N[C@H]1CC[C@]2(C)C3CC[C@]4(C)C(C(C)N(C)C)=CCC4C3CCC2[C@H]1O (stereo partly drawn)
14.3 µM

Ok, now CCOC(=O)C12C(C(=O)OC)=C(C)N(NC(=O)Nc3ccccc3)C1(N)N(NC(=O)Nc1ccccc1)C(C)=C2C(=O)OC (stereo not drawn)
59 µM

Ok, now O=C(c1ccccc1)c1c(C(F)(F)F)n([O-])c2cc(C(F)(F)F)ccc2[n+]1=O
2.44 µM

Ok, now CCOC(=O)[C@@]1(C)CC(O)C(=O)N1C (stereo partly drawn)
> 100 µM

Ok, now N/C(=N\Nc1ccc(Cl)cc1)c1cnccn1
> 100 µM

Ok, now O=S(=O)(N=NC=C1c2ccccc2N(O)c2ccccc21)c1ccc(Cl)cc1
> 100 µM

Ok, now COC(=O)C(Cc1c[nH]c2ccccc12)NP(=O)(O)OCC1OC(n2cc(Br)c(=O)[nH]c2=O)CC1O (stereo not drawn)
> 100 µM

Ok, now CCCN(CCC)C(=O)c1nc(N)nc(-c2ccc(OC)cc2)c1-c1ccc(OC)cc1
> 100 µM

Ok, now CN(CCCNC(=O)c1nn(C)c2c1Cc1ccccc1-2)CCCNC(=O)c1nn(C)c2c1Cc1ccccc1-2
10.9 µM

Ok, now COc1cc(NS(C)(=O)=O)ccc1NCc1c2ccccc2nc2ccccc12
33.5 µM

Ok, now N/N=C(\c1nc2ccc(Cl)cc2[nH]c1=O)C(O)c1ccc(Cl)c(Cl)c1 (stereo not drawn)
> 100 µM

Ok, now COc1ccc2c(c1)NC1(O)c3ccccc3C(=O)C21O (stereo not drawn)
> 100 µM

Ok, now CN(O)C(=O)CCCC(=O)NCC(C)(C)CNC(=O)CCCC(=O)N(C)O
> 100 µM

Ok, now Cn1nc(C(F)(F)F)c(-c2cc(C(F)(F)F)cc(C(F)(F)F)c2)c1-c1ccc(OCc2ccc(Cl)cc2)cc1O
14.9 µM

Ok, now COC1=CC(=O)C=C(OC)C1=O
4.88 µM

---

Test system: SF-295 CNS
Experiment: NCI tumour cell line growth inhibition, 48 h
measurement label: log10 of TGI (log10 of the value in µM)
Scale: decimal log of TGI, TGI in µM.

Need log10 of TGI of Nc1nc2cc(CC[C@H]3C[C@@H](n4ccc5c(N)ncnc54)[C@H](O)[C@@H]3O)ccc2cc1Br , thanks.
1.28

Ok, now CCCCCCCCCCCCCCCCOP(=O)([O-])OCC[N+](C)(C)C
1.72

Ok, now C[n+]1c2ccccc2nc2ccccc21
0.62

Ok, now COC1=CC(c2ccc[nH]2)=N/C1=C\c1[nH]c(C)c(CC(=O)OCc2ccccc2)c1C
0.04

Ok, now CC(=O)O[C@H]1C(=O)[C@@]2(C)[C@H]([C@H](OC(=O)c3ccccc3)[C@]3(O)C[C@H](OC(=O)[C@H](O)[C@@H](NC(=O)c4ccccc4)c4cccc(N(C)C)c4)C(C)=C1C3(C)C)[C@]1(OC(C)=O)CO[C@@H]1C[C@@H]2O
0.06

Ok, now CCOc1ccc(NCC2CC/C(=C\c3ccccc3OC)C2=O)cc1 (stereo not given)
1.51

Ok, now c1ccc(Nc2nn3c(CCCCCCCCc4nnc5sc(Nc6ccccc6)nn45)nnc3s2)cc1
1.86

---

Test system: HCT-116 colon
Assay: NCI tumour cell line growth inhibition, 48 h
measurement label: TGI

Need TGI of CCOc1ccc(NCC2CC/C(=C\c3ccccc3OC)C2=O)cc1 (stereo unspecified) , thanks.
14.5 µM

Ok, now CCCCc1ccc(Nc2nc(Cl)c3c(ncn3C3CC(Oc4ccc(C)cc4)C(COc4ccc(C)cc4)O3)n2)cc1 (stereo unspecified)
> 100 µM

Ok, now C=CC(=O)N1C/C(=C\c2ccc([N+](=O)[O-])cc2)C(=O)/C(=C/c2ccc([N+](=O)[O-])cc2)C1
0.115 µM

Ok, now NCCCNOCCCN
> 100 µM

Ok, now COC(=O)c1c2c(c(C)[n+]([O-])c1C)C(=O)C=C(NCc1cccc(Cl)c1)C2=O
0.976 µM

Ok, now O=P(Nc1ccccc1)(Oc1ccccc1)N(CCCl)CCCl (stereo unspecified)
> 100 µM

Ok, now COc1ccc2c(c1OC)C(C(Cl)(Cl)Cl)N1CCc3cc4c(cc3C1=C2)OCO4 (stereo unspecified)
27.9 µM

Ok, now CCOC(=O)CCN1C(=O)C(=O)N(c2ccc(OC)cc2)C1=S
> 100 µM

Ok, now COC1=CC(c2ccc[nH]2)=N/C1=C\c1[nH]c(C)c(CC(=O)OCc2ccccc2)c1C
1.05 µM

Ok, now Nn1c(=O)[nH]c2ncn(Cc3ccccc3)c2c1=O
> 100 µM

Ok, now O=C(C/C(=N/O)C(F)(F)F)c1cccs1
> 100 µM

Ok, now CCCCCCCC(=O)SCC/C=C/[C@@H]1CC(=O)NCc2nc(cs2)C2=N[C@@](C)(CS2)C(=O)N[C@@H](C(C)C)C(=O)N1
0.035 µM

Ok, now C[C@H]1COCCN1c1cc(C2(S(=O)(=O)C3CC3)CC2)nc(-c2ccc(NC(=S)NCCO)cc2)n1
21.4 µM

Ok, now COC(=O)C(CC(=O)Nc1ccc(Cl)c(Cl)c1)C(=O)C(=O)Nc1ccc(Cl)c(Cl)c1 (stereo unspecified)
> 100 µM

Ok, now CN(C)CCCC1(c2ccc(F)cc2)OCc2cc(-c3cc4ccccc4s3)ccc21 (stereo unspecified)
3.22 µM

Ok, now Cc1cc2c(cc1C)C(=O)C1(C2)Cc2cc3c(cc2C1=O)CCC3 (stereo unspecified)
> 100 µM

Ok, now COC1=CC(=O)C=C(OC)C1=O
15.1 µM

Ok, now COC(=O)c1c2c(cc3c1CC1(Cc4cc5c(c(C(C)=O)c4C1)CCCC5)C3)CCCC2 (stereo unspecified)
> 100 µM

Ok, now COC(=O)c1c(C)cccc1C1CN=NC12Cc1cc(C)cc(C)c1C2=O (stereo unspecified)
> 100 µM

Ok, now CC(C(=O)c1ccncc1)c1ccccn1 (stereo unspecified)
> 100 µM

Ok, now CC(=O)NC(CSC1=C2NC(=O)\C=C/C=C/C=C\C(C)C(O)CC(=O)/C(C)=C\CC(O)/C=C/C(C)C(O)C(C)C=C(C)C(=O)c3c(O)c(C)cc(c3C1=O)C2=O)C(=O)O (stereo unspecified)
> 100 µM

Ok, now O=c1[nH]nc(Cc2ccccc2)n1/N=C/c1cccnc1
> 100 µM

Ok, now O=C(O)/C(=C\c1ccc(O)cc1)c1cccc2ccccc12
> 100 µM

Ok, now CC(C)(C)N/N=C(\C(=O)Nc1nc(=S)[nH][nH]1)C1C(=O)Nc2ccccc2S1=O (stereo unspecified)
> 100 µM

Ok, now CC([C@H]1CC=C2C3CCC4=C[C@@H](N(C)C)CC[C@]4(C)C3CC[C@@]21C)N(C)C (stereo partly specified)
2.76 µM

Ok, now Cc1cc(Nc2ccc(NS(C)(=O)=O)cc2)c2c(ccc3nccc32)[nH]1
37.9 µM

Ok, now N/N=C(\c1nc2ccc(Cl)cc2[nH]c1=O)C(O)c1ccc(Cl)c(Cl)c1 (stereo unspecified)
> 100 µM

Ok, now O=C(c1ccccc1)c1c(C(F)(F)F)n([O-])c2cc(C(F)(F)F)ccc2[n+]1=O
2.36 µM

Ok, now CCCCc1ccc(Nc2nc(Cl)c3ccn(C4CC(Oc5ccc(C)cc5)C(COc5ccc(C)cc5)O4)c3n2)cc1 (stereo unspecified)
> 46.4 µM

Ok, now Cn1c2ccccc2c2cc(N3CCCC3)c3c(c21)C(=O)N(c1ccccc1)C3=O
> 100 µM

Ok, now Cc1ccc2nc3cc(C)c(=O)cc-3sc2c1
> 100 µM

Ok, now C=C1C(=O)O[C@H]2[C@H]1CC/C(Cn1cc(-c3ccc(F)cc3)nn1)=C\CC[C@@]1(C)O[C@@H]21
1.21 µM

Ok, now COc1ccc(NC(C(N)=O)c2cc3cc(Br)ccc3nc2Cl)cc1 (stereo unspecified)
> 100 µM

Ok, now CCCOP(=O)(OCCC)OC(C(F)(F)F)C(F)(F)F
> 100 µM

Ok, now N/C(=N\Nc1ccc(Cl)cc1)c1cnccn1
> 100 µM

Ok, now O=C1C=Cc2c1ccc1ccccc21
> 100 µM

Ok, now COc1ccc2c(c1)NC1(CCN(CCCC(=O)c3ccc(F)cc3)CC1)N=N2
36 µM

Ok, now CCOC(=O)C(=CNC(=S)N=Nc1c(O)[nH]c2ccccc12)C(=O)OCC
> 100 µM

Ok, now O=C(O)c1c2c(cc3c1CC1(Cc4cc5c(cc4C1=O)CCC5)C3)CCC2 (stereo unspecified)
> 100 µM

Ok, now O=C(N/N=C\c1cccc2ccccc12)Nc1cccc2ccccc12
72 µM

Ok, now Cc1cc(S(=O)(=O)Nc2nncn2-c2ccc(Cl)cc2)c(S)cc1Cl
> 10 µM
